The reported measurements were obtained from patent US20250127801A1.

Documented CC50 across a set of compounds
# METHOD SUMMARY: in vitro
# EXPERIMENTAL CONDITIONS: human
QUANTITY NAME: CC50 (µM)

>>> test_result("CC1=NO[C@@]2(CC[C@H](C)N3C[C@H]2n2cc(C(=O)NCc4ccc(F)cc4F)c(=O)c(OC(=O)N(C)c4ncc(C(=O)O)cc4CN(CC(=O)O)C(=O)OCOP(=O)(O)O)c2C3=O)C1")
10.4
>>> test_result("CC1=NO[C@@]2(CC[C@H](C)N3C[C@H]2n2cc(C(=O)NCc4ccc(F)cc4F)c(=O)c(OCOC(=O)N(C)Cc4ccccc4OP(=O)(O)O)c2C3=O)C1")
33.5
>>> test_result("COC(=O)CN(Cc1cccnc1N(C)C(=O)Oc1c2n(cc(C(=O)NCc3ccc(F)cc3F)c1=O)[C@@H]1CN(C2=O)[C@@H](C)CC[C@]12CC(C)=NO2)C(=O)OCOP(=O)(O)O")
12.8
>>> test_result("CC1=NO[C@@]2(CC[C@H](C)N3C[C@H]2n2cc(C(=O)NCc4ccc(F)cc4F)c(=O)c(OCOC(=O)N(C)Cc4cc(C(=O)O)ccc4OP(=O)(O)O)c2C3=O)C1")
12.9
